tested on: HEK-293T; assay: Multiplex assay against HEK293T; format: toxicity, cell-based; settings: human, 48 h, 10 µM, compound concentration 10 uM, replicate 1
OBSERVED_PROPERTY: Population Hoechst High Intensity Objects (%)
Answers are plain numbers, in %.

[[record]]
compound = "CN(C)c1ccnc2sc3c(=O)n(N4CCCCCC4)cnc3c12"
readout_number = 8

[[record]]
compound = "Oc1c(CN2CCN(c3ccccn3)CC2)cc(Cl)c2cccnc12"
readout_number = 25

[[record]]
compound = "CC(C)(C)c1ccc(S(=O)(=O)Nc2ccc(Cl)cc2C(=O)c2cc[n+]([O-])cc2)cc1"
readout_number = 3

[[record]]
compound = "COc1cc(C(=O)N(CCCc2ccccc2)Cc2ccc(CC(=O)O)cc2)cc(OC)c1C"
readout_number = 4

[[record]]
compound = "CNC[C@H](O)c1ccc(O)c(O)c1 [EPINEPHRINE]"
readout_number = 3


Would you mind listing Population Hoechst High Intensity Objects (%) for each of the following compounds?
1. N[C@@]1(C(=O)O)CO[C@H]2[C@H](C(=O)O)[C@H]21
2. COc1cc(NC(=O)CCN2CCC(OC(=O)Nc3ccccc3-c3ccccc3)CC2)c(Cl)cc1CNC[C@H](O)c1ccc(O)c2[nH]c(=O)ccc12

*A*
1. 4
2. 7
